Assay: Phase 1 MAD Compound A concentration in skin
Type: in vivo
Conditions: human, oral, Day 14, once daily dosing, read-out: Ctrough (pre-dose) levels in skin relative to plasma
property_label: Kp at 14 day

Query block: Which value of Kp at 14 day has been reported for Cn1c(=O)n([C@@H]2CCC(=O)NC2=O)c2cccc(C#CCOC3CCN(C[C@H]4CC[C@H](n5cc(NC(=O)c6cnn7ccc(N8C[C@H]9C[C@@H]8CO9)nc67)c(C(F)F)n5)CC4)CC3)c21 in the records?
Result block: ~10

====

Assay: Phase 1 MAD plasma pharmacokinetics
Type: in vivo, human
Conditions: human, plasma, oral; steady-state (Day 14), 50 mg QD; median (range)
Text: The selection of Compound A doses will be guided by the safety, tolerability, and PK data in humans from the SAD portion of the study. […] Increasing dose levels in subsequent MAD cohorts will be identified based on the safety and PK observed in the previous SAD and MAD cohorts. Dose escalation between each MAD cohort will not exceed 100%. However, the dosing interval and the duration of dosing may change following review of the safety, PK, and PD data from Part A. […]
property_label: Tmax at 14 days (h)
# number only, unit h dropped from output

Query block: Which value of Tmax at 14 days has been reported for Cn1c(=O)n([C@@H]2CCC(=O)NC2=O)c2cccc(C#CCOC3CCN(C[C@H]4CC[C@H](n5cc(NC(=O)c6cnn7ccc(N8C[C@H]9C[C@@H]8CO9)nc67)c(C(F)F)n5)CC4)CC3)c21 [Compound A] in the records?
Result block: 8
